The reported numbers originate from patent US11845793B2.

target: StrepII-tagged ROR1-extracellular domain (human, UniProt Q01973); test: SPR (Biacore T200), purified mAb captured by anti-human Fc, ROR1-strep as analyte, 1:1 model
Sequence (Q01973 other isoform, or with tags, fused parts or gaps): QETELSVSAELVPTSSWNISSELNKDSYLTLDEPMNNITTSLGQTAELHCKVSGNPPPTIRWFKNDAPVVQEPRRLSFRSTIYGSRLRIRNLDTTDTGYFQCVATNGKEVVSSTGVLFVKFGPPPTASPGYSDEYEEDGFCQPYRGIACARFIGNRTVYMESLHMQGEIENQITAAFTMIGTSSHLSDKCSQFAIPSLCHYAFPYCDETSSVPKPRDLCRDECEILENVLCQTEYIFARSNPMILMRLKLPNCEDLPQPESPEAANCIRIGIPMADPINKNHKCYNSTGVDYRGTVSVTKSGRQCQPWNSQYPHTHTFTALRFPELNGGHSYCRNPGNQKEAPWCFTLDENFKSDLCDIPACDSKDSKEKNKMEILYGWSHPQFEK
Assay Metric: koff (s⁻¹)
Just the number in s⁻¹, nothing appended.

Guide cases for koff, answers given:
| Binder | Scale Unit | Observed Value |
| --- | --- | --- |
| hu2A2-D16, humanized from 2A2 (antibody, V domains shown) VH: EVQLVESGAEVKKPGASVKVSCKASGYTFSDYEMHWVRQAPGQGLEWVGAIDPETGGTAYNQKFKGRVTMTRDTSTSTVYMELSSLRSEDTAVYYCTGYYDYDSFTYWGQGTLVTVSS VL: DIQMTQSPSSLSASVGDRVTITCKASQNVDAAVAWYQQKPGKAPKLLIYSASNRYTGIPTRFSGSGSGTDFTLTISSLQSEDLADYFCQQYDIYPYTFGQGTKVEIK | s⁻¹ | 0.0189 |
| chimeric mAb 2A2 (antibody, V domains shown) VH: QVQLQQSGAELVRPGASVTLSCKASGYTFSDYEMHWVIQTPVHGLEWIGAIDPETGGTAYNQKFKGKAILTADKSSSTAYMELRSLTSEDSAVYYCTGYYDYDSFTYWGQGTLVTVSA VL: DIVMTQSQKIMSTTVGDRVSITCKASQNVDAAVAWYQQKPGQSPKLLIYSASNRYTGVPDRFTGSGSGTDFTLTISNMQSEDLADYFCQQYDIYPYTFGGGTKLEIK | s⁻¹ | 0.00968 |
| chimeric mAb R11 (antibody, V domains shown) VH: QSVKESEGDLVTPAGNLTLTCTASGSDINDYPISWVRQAPGKGLEWIGFINSGGSTWYASWVKGRFTISRTSTTVDLKMTSLTTDDTATYFCARGYSTYYGDFNIWGPGTLVTISS VL: ELVMTQTPSSTSGAVGGTVTINCQASQSIDSNLAWFQQKPGQPPTLLIYRASNLASGVPSRFSGSRSGTEYTLTISGVQREDAATYYCLGGVGNVSYRTSFGGGTEVVVK | s⁻¹ | 0.00328 |

Prompt line: koff for rbD4, humanized from R11 (antibody, V domains shown) VH: EVQLVESGGGLVQPGRSLRLSCTASGSDINDYPISWFRQAPGKGLEWVGFINSGGSTWYASWVKGRFTISRDDSKSIAYLQMNSLKTDDTATYFCARGYSTYYGDFNIWGQGTTVTVSS VL: DVVMTQSPSSLSASVGDRVTITCQASQSIDSNLAWFQQKPGKAPNLLIYRASNLASGVPSRFSGSGSGTEFTLTISSLQREDAATYYCLGGVGNVSYRTSFGQGTKVEIK ?
Response line: 0.0071
